The following molecules each carry a recorded IC50 for ASK1 (Homo sapiens (Human), UniProt Q99683).

COCCS(=O)(=O)N1CCc2cc(F)c(C(=O)Nc3cccc(-c4nncn4C(C)C)n3)cc2C1 | 0.001 to 0.01 µM
CC(C)n1nnnc1-c1cccc(NC(=O)c2cc3c(cn2)CCN(C(=O)N(C)C2CCCC2)C3)n1 | 0.01 to 0.1 µM
COCCC(=O)N1CCc2cnc(C(=O)Nc3cccc(-c4nnnn4[C@H](C)CO)n3)cc2C1 | 0.001 to 0.01 µM
CCn1cc(CNC(=O)N2CCc3cnc(C(=O)Nc4cccc(-c5nnnn5[C@H](C)CO)n4)cc3C2)cn1 | < 0.001 µM
CCOC(=O)N1Cc2ccc(C(=O)Nc3cccc(-c4nnnn4C(C)C)n3)cc2C1 | > 1 µM

Give its IC50 value. Item: CC(C)n1nnnc1-c1cccc(NC(=O)c2cc3c(cn2)CN(C(=O)OCc2ccccc2)C3)n1
> 1 µM

----------
target: ASK1 (Homo sapiens (Human))
pIC50: −log10 of the molar value.
propertyName: pIC50

CC(C)n1nnnc1-c1cccc(NC(=O)c2cc3c(cn2)CCN(S(=O)(=O)CC(F)(F)F)C3)n1 | 7.00 to 8.00
C[C@H](CO)n1nnnc1-c1cccc(NC(=O)c2cc3c(cn2)CCN(S(=O)(=O)N(C)C)C3)n1 | 8.00 to 9.00
COC(=O)N1CCc2cnc(C(=O)Nc3cccc(-c4nnnn4[C@H](C)CO)n3)cc2C1 | 8.00 to 9.00
CC(C)n1nnnc1-c1cccc(NC(=O)c2ccc3c(c2)CN(C(=O)N2CCCC2)C3)n1 | 6.00 to 7.00
CC(C)n1cnnc1-c1cccc(NC(=O)c2cc3c(cc2F)CCN(S(=O)(=O)N(C)C)C3)n1 | 8.00 to 9.00
CC(=O)OC[C@@H](C)n1nnnc1-c1cccc(NC(=O)c2cc3c(cn2)CCN(C(=O)OC(C)(C)C)C3)n1 | 6.00 to 7.00
CCOC(=O)N1CCc2cc(F)c(C(=O)Nc3cccc(-c4nncn4C(C)C)n3)cc2C1 | 8.00 to 9.00
CC(C)n1nnnc1-c1cccc(NC(=O)c2cc3c(cn2)CCN(S(=O)(=O)CCC(F)(F)F)C3)n1 | 8.00 to 9.00
C[C@H](CO)n1nnnc1-c1cccc(NC(=O)c2cc3c(cn2)CCN(C(=O)OC2CCCC2)C3)n1 | 8.00 to 9.00
CC(C)n1nnnc1-c1cccc(NC(=O)c2ccc3c(c2)CN(C(=O)OCc2ccccc2)C3)n1 | < 6.00

Field request: pIC50 | item: CC(C)n1nnnc1-c1cccc(NC(=O)c2ccc3c(c2)CN(C(=O)N(C)C)C3)n1
6.00 to 7.00

Look up pIC50 for this compound: COCCS(=O)(=O)N1CCc2cnc(C(=O)Nc3cccc(-c4nnnn4C(C)C)n3)cc2C1
8.00 to 9.00

Find the recorded pIC50 belonging to CC(C)n1cnnc1-c1cccc(NC(=O)c2ccc3c(c2)CN(C(=O)OCCF)CC3)n1 and report it.
7.00 to 8.00

// lookup pIC50 for CC(C)n1nnnc1-c1cccc(NC(=O)c2cc3c(cn2)CCN(C(=O)N(C)CCC(F)(F)F)C3)n1
7.00 to 8.00

Record request: pIC50 value, item COCCCN1CCc2ccc(C(=O)Nc3cccc(-c4nncn4C(C)C)n3)cc2C1
6.00 to 7.00

Could you share which pIC50 value was measured for C[C@H](CO)n1nnnc1-c1cccc(NC(=O)c2cc3c(cn2)CCN(C(=O)C2CCCC2)C3)n1 ?
8.00 to 9.00

# query: pIC50 of entry CC(=O)OC[C@@H](C)n1nnnc1-c1cccc(NC(=O)c2cc3c(cc2F)CCN(C(=O)OCc2ccccc2)C3)n1
< 6.00

pIC50 for C[C@H](CO)n1nnnc1-c1cccc(NC(=O)c2cc3c(cn2)CCN(C(=O)N2[C@@H]4CCC[C@H]2CC4)C3)n1 ?
8.00 to 9.00

----------
molecular target: ASK1 (Homo sapiens (Human), UniProt Q99683); assay: HTRF KinEASE Assay (TR-FRET, STK3 peptide substrate), inhibition of ASK1; format: biochemical; conditions: 5 nM ASK1 kinase, 1 μM STK3 peptide substrate, 100 μM ATP, 3 hours; compound 0 to 10 μM
Sequence (Q99683 whole entry): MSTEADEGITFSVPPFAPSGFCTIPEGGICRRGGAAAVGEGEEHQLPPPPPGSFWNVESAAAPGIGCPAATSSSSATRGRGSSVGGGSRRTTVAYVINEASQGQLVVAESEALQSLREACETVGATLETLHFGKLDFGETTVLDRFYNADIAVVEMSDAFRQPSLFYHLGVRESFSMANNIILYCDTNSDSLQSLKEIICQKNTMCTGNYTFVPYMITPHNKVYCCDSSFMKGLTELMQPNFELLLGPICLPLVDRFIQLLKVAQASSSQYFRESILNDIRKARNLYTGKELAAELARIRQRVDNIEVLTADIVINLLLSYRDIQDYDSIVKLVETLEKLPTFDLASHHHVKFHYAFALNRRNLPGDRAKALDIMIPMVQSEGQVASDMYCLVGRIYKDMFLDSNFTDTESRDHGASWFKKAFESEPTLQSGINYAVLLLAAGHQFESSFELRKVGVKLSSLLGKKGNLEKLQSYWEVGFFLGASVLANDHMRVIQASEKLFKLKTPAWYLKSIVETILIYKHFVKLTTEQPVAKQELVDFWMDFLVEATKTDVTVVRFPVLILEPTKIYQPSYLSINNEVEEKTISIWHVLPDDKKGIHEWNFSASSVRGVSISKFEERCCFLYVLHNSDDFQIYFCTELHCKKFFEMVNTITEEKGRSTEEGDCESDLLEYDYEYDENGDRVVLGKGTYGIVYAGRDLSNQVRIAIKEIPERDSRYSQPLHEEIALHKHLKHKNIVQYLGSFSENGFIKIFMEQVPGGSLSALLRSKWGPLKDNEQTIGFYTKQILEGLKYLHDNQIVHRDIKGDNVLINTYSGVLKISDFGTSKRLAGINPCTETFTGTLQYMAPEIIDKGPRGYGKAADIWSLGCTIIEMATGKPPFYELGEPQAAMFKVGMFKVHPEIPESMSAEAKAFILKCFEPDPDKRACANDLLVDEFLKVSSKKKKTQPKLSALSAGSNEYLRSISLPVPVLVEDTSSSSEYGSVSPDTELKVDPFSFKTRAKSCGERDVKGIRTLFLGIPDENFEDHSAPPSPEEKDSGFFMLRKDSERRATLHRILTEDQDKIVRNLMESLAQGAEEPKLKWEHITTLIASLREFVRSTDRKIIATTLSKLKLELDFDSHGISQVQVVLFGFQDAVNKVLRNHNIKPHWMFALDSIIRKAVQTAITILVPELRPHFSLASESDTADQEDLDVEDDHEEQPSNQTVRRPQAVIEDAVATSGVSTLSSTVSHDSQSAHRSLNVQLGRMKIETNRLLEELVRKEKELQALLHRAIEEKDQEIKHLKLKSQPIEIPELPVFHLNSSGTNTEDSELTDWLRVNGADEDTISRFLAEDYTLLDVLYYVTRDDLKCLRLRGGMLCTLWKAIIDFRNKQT
Collected IC50 values appear next to each entry.

C[C@H](CO)n1nnnc1-c1cccc(NC(=O)c2cc3c(cn2)CCN(C(=O)OCC(F)(F)F)C3)n1 | < 1 nM
CC(C)n1cnnc1-c1cccc(NC(=O)c2ccc3c(c2)CNCC3)n1 | 100 to 1000 nM
C[C@H](CO)n1nnnc1-c1cccc(NC(=O)c2cc3c(cn2)CCN(C(=O)NCCC(F)(F)F)C3)n1 | 1 to 10 nM

Next molecule, IC50 to be filled in.
Look up IC50: C[C@H](CO)n1nnnc1-c1cccc(NC(=O)c2cc3c(cn2)CCN(C=O)C3)n1
1 to 10 nM

----------
target: ASK1 (Homo sapiens (Human))
pIC50: −log10 of the molar value.
Below, each entry is listed alongside its reported pIC50.

Look over these answered cases.
CC(C)n1nnnc1-c1cccc(NC(=O)c2cc3c(cn2)CCN(S(=O)(=O)CC2CC(F)(F)C2)C3)n1 | 8.00 to 9.00
CCN(C)C(=O)N1CCc2cnc(C(=O)Nc3cccc(-c4nnnn4[C@H](C)CO)n3)cc2C1 | 8.00 to 9.00
CC(C)n1nnnc1-c1cccc(NC(=O)c2cc3c(cc2F)CCN(C(=O)N(C)CC(F)(F)F)C3)n1 | 7.00 to 8.00

Next:
Request body: readout pIC50, system ASK1 (Homo sapiens (Human)), query CCN(C)C(=O)N1CCc2cnc(C(=O)Nc3cccc(-c4nnnn4C(C)C)n3)cc2C1 . Return the value.
8.00 to 9.00

----------
Form: system (ASK1 (Homo sapiens (Human), UniProt Q99683)), quantity (IC50), values below.

Look over these answered cases.
CC(C)n1cnnc1-c1cccc(NC(=O)c2cc3c(cc2F)CCN(C(=O)OC2CCCC2)C3)n1 | 0.001 to 0.01 µM
CC(C)CS(=O)(=O)N1CCc2cnc(C(=O)Nc3cccc(-c4nnnn4C(C)C)n3)cc2C1 | 0.001 to 0.01 µM
CCN1CCN(C(=O)N2CCc3cc(F)c(C(=O)Nc4cccc(-c5nnnn5C(C)C)n4)cc3C2)C(=O)C1=O | 0.01 to 0.1 µM
CC(C)S(=O)(=O)N1CCc2cnc(C(=O)Nc3cccc(-c4nnnn4[C@H](C)CO)n3)cc2C1 | 0.001 to 0.01 µM
CCC(=O)N1CCc2cnc(C(=O)Nc3cccc(-c4nnnn4[C@H](C)CO)n3)cc2C1 | 0.001 to 0.01 µM
CC(C)n1nnnc1-c1cccc(NC(=O)c2cc3c(cn2)CCN(C(=O)N2CCS(=O)(=O)CC2)C3)n1 | 0.001 to 0.01 µM
CC(C)n1nnnc1-c1cccc(NC(=O)c2cc3c(cc2F)CCN(S(=O)(=O)N(C)C)C3)n1 | 0.01 to 0.1 µM
CC(C)n1cnnc1-c1cccc(NC(=O)c2cc3c(cc2F)CCN(C(=O)OCc2ccccc2)C3)n1 | 0.01 to 0.1 µM

API: value(readout=IC50, system=ASK1 (Homo sapiens (Human), UniProt Q99683)) for record C[C@H](CO)n1nnnc1-c1cccc(NC(=O)c2cc3c(cn2)CCN(C(=O)C2CCC2)C3)n1
0.001 to 0.01 µM

----------
The following compounds have recorded IC50 on ASK1 (Homo sapiens (Human)).

Known IC50 results, listed for orientation:
CC(C)n1nnnc1-c1cccc(NC(=O)c2cc3c(cc2F)CCN(S(=O)(=O)C2CC2)C3)n1 | > 1000 nM
CC(C)N(C)C(=O)N1CCc2cc(F)c(C(=O)Nc3cccc(-c4nnnn4C(C)C)n3)cc2C1 | 10 to 100 nM
CCN1CCc2cc(F)c(C(=O)Nc3cccc(-c4nnnn4C(C)C)n3)cc2C1=O | > 1000 nM
CCCCNC(=O)N1CCc2ccc(C(=O)Nc3cccc(-c4nncn4C(C)C)n3)cc2C1 | 1 to 10 nM
CCOC(=O)N1CCc2cnc(C(=O)Nc3cccc(-c4nnnn4C(C)C)n3)cc2C1 | 1 to 10 nM

Please report the recorded IC50 for CC(C)n1nnnc1-c1cccc(NC(=O)c2cc3c(cn2)CCN(S(=O)(=O)N(C)C)C3)n1 .
10 to 100 nM

----------
Entries with reported IC50 on ASK1 (Homo sapiens (Human), UniProt Q99683)

CC(C)n1nnnc1-c1cccc(NC(=O)c2cc3c(cn2)CCN(S(=O)(=O)C2CC2)C3)n1 [Example 110] | 1 to 10 nM
CC(C)n1nnnc1-c1cccc(NC(=O)c2cc3c(cc2F)CCN(C(=O)OC2CCCC2)C3)n1 [Example 57] | 10 to 100 nM
CC(C)n1cnnc1-c1cccc(NC(=O)c2cc3c(cc2F)CCNC3)n1 [Example 27] | 10 to 100 nM
C[C@H](CO)n1nnnc1-c1cccc(NC(=O)c2cc3c(cn2)CCN(C(=O)NC2CC2)C3)n1 [Example 131] | 1 to 10 nM
CC(=O)OC[C@@H](C)n1nnnc1-c1cccc(NC(=O)c2cc3c(cc2F)CCN(S(=O)(=O)CCC(F)(F)F)C3)n1 [Example 84] | > 1000 nM

Item C[C@H](CO)n1nnnc1-c1cccc(NC(=O)c2cc3c(cn2)CCN(Cc2ccccn2)C3)n1 [Example 171] with ASK1 (Homo sapiens (Human), UniProt Q99683) - IC50?
1 to 10 nM

Kindly state the measured IC50 obtained for C[C@H](CO)n1nnnc1-c1cccc(NC(=O)c2cc3c(cn2)CCN(S(=O)(=O)c2ccccc2)C3)n1 [Example 120] with ASK1 (Homo sapiens (Human), UniProt Q99683).
1 to 10 nM

What measured IC50 is associated with CC(C)n1cnnc1-c1cccc(NC(=O)c2ccc3c(c2)CN(C(=O)OC(C)(C)C)CC3)n1 [Example 183a] on ASK1 (Homo sapiens (Human), UniProt Q99683)?
> 1000 nM

Lab note: need IC50 with ASK1 (Homo sapiens (Human), UniProt Q99683) for entry CCN(C)C(=O)N1Cc2ccc(C(=O)Nc3cccc(-c4nncn4C(C)C)n3)cc2C1 [Example 5] , please look it up.
100 to 1000 nM

// map CC(C)n1cnnc1-c1cccc(NC(=O)c2cc3c(cc2F)CCN(S(=O)(=O)C2CCCC2)C3)n1 [Example 21] to recorded IC50 (system: ASK1 (Homo sapiens (Human), UniProt Q99683))
1 to 10 nM

Lab note: need IC50 for C[C@H](CO)n1nnnc1-c1cccc(NC(=O)c2cc3c(cn2)CCN(C(=O)NC2CCCC2)C3)n1 [Example 169] on ASK1 (Homo sapiens (Human), UniProt Q99683), anyone have it?
1 to 10 nM

Reported IC50 for ASK1 (Homo sapiens (Human), UniProt Q99683), given CC(C)N1Cc2cc(F)c(C(=O)Nc3cccc(-c4nncn4C(C)C)n3)cc2C1=O [Example 177] ?
> 1000 nM

What reported IC50 corresponds to CC(C)n1cnnc1-c1cccc(NC(=O)c2ccc3c(c2)CN(S(=O)(=O)CCC(F)(F)F)C3)n1 [Example 4] on ASK1 (Homo sapiens (Human), UniProt Q99683)?
100 to 1000 nM

Could you share what IC50 was measured for CC(C)n1nnnc1-c1cccc(NC(=O)c2ccc3c(c2)CN(S(=O)(=O)CCC(F)(F)F)C3)n1 [Example 14] , tested on ASK1 (Homo sapiens (Human), UniProt Q99683)?
> 1000 nM

The values you see were collected from patent US10450301B2.
